Entries and their inhibition in vivo at 50 mg/kg values follow.
Test system: Rattus norvegicus
Assay: Antiinflammatory activity in rat assessed as inhibition of carrageenan-induced paw edema at 50 mg/kg, po measured after 360 min by Plethysmograph
Assay type: functional
Details: 6 h
Please state the figure in %; there is no need to write the unit.

Recorded inhibition in vivo at 50 mg/kg, per entry:
COc1ccc(-c2nc3cc(F)ccc3c(=O)n2-c2ccc(SC)cc2)cc1
40
COc1ccc(-c2nc3cc(Cl)ccc3c(=O)n2-c2ccc(S(C)(=O)=O)cc2)cc1
43
CS(=O)(=O)c1ccc(-n2c(-c3ccccc3)nc3cc(F)ccc3c2=O)cc1
41
CSc1ccc(-n2c(-c3ccccc3)nc3ccccc3c2=O)cc1
38

Reported inhibition in vivo at 50 mg/kg ( `COc1ccc(-c2nc3cc(F)ccc3c(=O)n2-c2ccc(S(C)(=O)=O)cc2)cc1` ) = 39

Every entry's value here was drawn from ChEMBL document CHEMBL1811843.
